The reported measurements were obtained from ChEMBL document CHEMBL3875190.

Assay: Total plasma clearance in dog
Type: ADME, cell-free, Canis lupus familiaris
clearance values by entry

chemicalString: CC[C@H](C)N1C(=O)C(C)(C)c2cnc(Nc3ccc(S(C)(=O)=O)cc3)nc21
measureUnit: mL/min/kg
clearance: 3
--
chemicalString: CC[C@H](C)N1C(=O)C(C)(C)c2cnc(Nc3ccc(-c4nnc(C)[nH]4)cc3)nc21
measureUnit: mL/min/kg
clearance: 10

* * *

Assay: Drug recovery in bile duct-cannulated rat urine after 8 hrs by chromatographic analysis
Assay type: ADME
Conditions: read-out: Drug recovery
recordedMetric: dose excreted at 8 h

chemicalString: [3H]c1nc(Nc2cccnc2)nc2c1C(C)(C)C(=O)N2[C@H](C)CC
testValue: 60 to 90%
